test system: BVDV; experiment: Two-way combination inhibition-of-CPE assay, BVDV-infected MDBK cells, MOI 0.01 (MacSynergy, isobologram); type: cell-based, bovine viral diarrhea virus; details: Bovine viral diarrhea virus isolates and strains, MDBK, Interferon-α2b added 0 IU/mL; read-out: Average Castanospermine EC50
pEC50: −log10 of the molar value.
reportedEndpoint: pEC50

O[C@H]1[C@H](O)[C@@H](O)CN2CC[C@H](O)[C@H]12 [Castanospermine]: 4.28

====

tested on: BVDV; experiment: Two-way combination inhibition-of-CPE assay, BVDV-infected MDBK cells, MOI 0.05 (Example 5); assay type: cell-based, bovine viral diarrhea virus; conditions: MOI 0.05, individual drug; read-out: EC50 protection of MDBK cells from BVDV-induced cytotoxicity
reportedEndpoint: EC50

CCCCN1C[C@H](O)[C@@H](O)[C@H](O)[C@H]1CO: > 500 µM
